List of LogP values.
# protocol-text: Measurement of Log P values by HPLC on reversed phase columns (EEC directive 79/831 Annex V.A8)
# Type: physicochemical
Marks after values point to notes of the source that are not given here.

{"molecule": "OC(Cc1ccc(Br)cc1F)(Cn1cncc1Cl)C1(Cl)CC1 (racemic)", "LogP": "2.64^[a]"}
{"molecule": "N#Cc1cncn1CC(O)(Cc1ccc(Cl)cc1F)C1(F)CC1 (racemic)", "LogP": "2.78^[a]"}
{"molecule": "N#Cc1cncn1CC(O)(Cc1cc(Cl)cc(Cl)c1)C1(Cl)CC1 (racemic)", "LogP": "3.55^[a]"}
{"molecule": "OC(Cc1cccc(F)c1F)(Cn1cncc1Cl)C1(Cl)CC1 (stereo not shown)", "LogP": "2.17^[a]"}

---

Listed here are compounds together with their documented LC50 at 96 h.
# protocol-text: Example G: in vivo ecotoxicity screening test on fish (Danio rerio)
# measurement-parameters: Danio rerio, in vivo, other: exposure of embryos in water containing the compound
measured-endpoint: LC50 at 96 h

{"compound": "CON=C(C(=O)OC)c1ccccc1CON=C(C)c1cccc(C(F)(F)F)c1 [Example 3.020, trifloxystrobin]", "measured-endpoint": "LC50 at 96 h", "value-observed": "0.24 µg/mL"}
{"compound": "CC(C)(C)[C@@H](O)[C@@H](Cc1ccc(Cl)cc1)n1cncn1 (racemic) [Example 1.015, paclobutrazol]", "measured-endpoint": "LC50 at 96 h", "value-observed": "56.5 µg/mL"}
{"compound": "COc1ccnc(C(=O)N[C@H]2COC(=O)[C@H](Cc3ccccc3)[C@@H](OC(=O)C(C)C)[C@H](C)OC2=O)c1OCOC(=O)C(C)C [Example 3.025]", "measured-endpoint": "LC50 at 96 h", "value-observed": "1.87 µg/mL"}
{"compound": "N#Cc1cncn1CC(O)(Cc1cccc(Cl)c1F)C1(Cl)CC1 (stereo not shown) [Example I-145]", "measured-endpoint": "LC50 at 96 h", "value-observed": "13.4 µg/mL"}
{"compound": "CCCN(CC)CC1COC2(CCC(C(C)(C)C)CC2)O1 (stereo not shown) [1.020 spiroxamine, spiroxamine, reference compound]", "measured-endpoint": "LC50 at 96 h", "value-observed": "14.8 µg/mL"}
{"compound": "O=C(Nc1ccccc1)N(Cc1ccc(Cl)cc1)C1CCCC1 [Example 4.005, pencycuron]", "measured-endpoint": "LC50 at 96 h", "value-observed": "> 200 µg/mL"}
{"compound": "CC(C)C1CCC(Cc2ccc(Cl)cc2)C1(O)Cn1cncn1 (stereo not shown) [Example 1.012, ipconazole]", "measured-endpoint": "LC50 at 96 h", "value-observed": "6.57 µg/mL"}

---

Each entry below carries its reported log10(LC50 at 48 h).
# protocol-text: Example G: in vivo ecotoxicity screening test on fish (Danio rerio)
# measurement-parameters: Danio rerio, in vivo, other: exposure of embryos in water containing the compound
measured-endpoint: log10(LC50 at 48 h) (log10 of the value in µg/mL)

{"molecule": "COc1ccnc(C(=O)N[C@H]2COC(=O)[C@H](Cc3ccccc3)[C@@H](OC(=O)C(C)C)[C@H](C)OC2=O)c1OCOC(=O)C(C)C", "value-observed": 0.36}
{"molecule": "CC(C)c1ccc(Cl)cc1CN(C(=O)c1c(C(F)F)nn(C)c1F)C1CC1", "value-observed": -0.29}
{"molecule": "CC(C)(C)C(O)(CCc1ccc(Cl)cc1)Cn1cncn1 (stereo not drawn)", "value-observed": 1.29}
{"molecule": "O=C(Cc1ccccc1)N/C(=N\\OCC1CC1)c1c(C(F)(F)F)ccc(F)c1F", "value-observed": 0.99}
{"molecule": "N#Cc1c[nH]cc1-c1cccc2c1OC(F)(F)O2", "value-observed": -0.04}

---

Catalogue of LogP readings, one per entry.
# protocol-text: Measurement of Log P values by HPLC on reversed phase columns (EEC directive 79/831 Annex V.A8)
# Type: physicochemical
Marks after values point to notes of the source that are not given here.

{"compound": "OC(Cc1ccccc1Cl)(Cn1cncc1Br)C1(Cl)CC1 (centres unmarked)", "LogP": "2.27^[a]"}
{"compound": "Cc1ccc(CC(O)(Cn2cncc2Cl)C2(Cl)CC2)c(C)c1 (racemic)", "LogP": "2.69^[a]"}
{"compound": "OC(Cc1ccnc(Cl)c1Cl)(Cn1cncc1Cl)C1(Cl)CC1 (racemic)", "LogP": "2.08^[a]"}
{"compound": "N#Cc1cncn1CC(O)(Cc1ccc(F)c(F)c1)C1(Cl)CC1 (centres unmarked)", "LogP": "2.78^[a]"}
{"compound": "NC(=O)c1cncn1CC(O)(Cc1ccc(Cl)cc1F)C1CC1 (centres unmarked)", "LogP": "1.49^[a]"}

---

# protocol-text: Measurement of Log P values by HPLC on reversed phase columns (EEC directive 79/831 Annex V.A8)
# Type: physicochemical
Marks after values point to notes of the source that are not given here.

{"compound": "N#Cc1cncn1CC(O)(Cc1ccccc1Cl)C1CC1 (racemic)", "LogP": "2.57^[a]"}
{"compound": "N#Cc1cncn1CC(O)(Cc1ccccc1Cl)C1(F)CC1 (racemic)", "LogP": "2.53^[a]"}
{"compound": "OC(Cc1ccccc1Cl)(Cn1cncc1C(F)(F)F)C1(Cl)CC1 (stereo not drawn)", "LogP": "3.63^[a]"}
{"compound": "CC(C)(C)CC(O)(Cc1ccccc1Cl)Cn1cncc1C#N (racemic)", "LogP": "3.55^[a]"}
{"compound": "OC(Cc1ccccc1F)(Cn1cncc1Cl)C1(Cl)CC1 (stereo not drawn)", "LogP": "2.07^[a]"}
{"compound": "OC(Cc1ccc(Cl)cc1F)(Cn1cncc1Cl)C1(Cl)CC1 (single isomer, unassigned)", "LogP": "2.54^[a]"}
{"compound": "N#Cc1cncn1CC(O)(Cc1ccc(Br)cc1Cl)C1(Cl)CC1 (racemic)", "LogP": "3.52^[a]"}
{"compound": "N#Cc1cncn1CC(O)(Cc1ccccc1F)C1CCC1 (stereo not drawn)", "LogP": "2.46^[a]"}
{"compound": "N#Cc1cncn1CC(O)(Cc1ccc(Oc2ccc(Cl)cc2)cc1Cl)C1(Cl)CC1 (racemic)", "LogP": "4.54^[a]"}
{"compound": "C#Cc1cncn1CC(O)(Cc1ccccc1Cl)C1(Cl)CC1 (racemic)", "LogP": "2.09^[a]"}
{"compound": "COC(=O)c1cncn1CC(O)(Cc1ccccc1Cl)C1(Cl)CC1 (stereo not drawn)", "LogP": "2.82^[a]"}
{"compound": "CSc1cncn1CC(O)(Cc1ccccc1Cl)C1(Cl)CC1 (stereo not drawn)", "LogP": "2.08^[a]"}
{"compound": "N#Cc1cncn1CC(O)(Cc1cccc(F)c1F)C1CCC1 (stereo not drawn)", "LogP": "2.57^[a]"}
{"compound": "OC(Cc1ccccc1Cl)(Cn1cncc1F)C1(Cl)CC1 (stereo not drawn)", "LogP": "1.94^[a]"}
{"compound": "N#Cc1cncn1CC(O)(Cc1ccc(F)cc1Cl)C1(Cl)CC1 (stereo not drawn)", "LogP": "3.00^[a]"}
{"compound": "OC(Cc1ccccc1)(Cn1cncc1Cl)C1(Cl)CC1 (racemic)", "LogP": "2.04^[a]"}
{"compound": "CC(C)C(O)(Cc1ccc(Cl)cc1F)Cn1cncc1C#N (stereo not drawn)", "LogP": "2.91^[a]"}
{"compound": "Cc1cncn1CC(O)(Cc1cccnc1Cl)C1(Cl)CC1 (stereo not drawn)", "LogP": "1.22^[a]"}

---

# protocol-text: Example G: in vivo ecotoxicity screening test on fish (Danio rerio)
# measurement-parameters: Danio rerio, in vivo, other: exposure of embryos in water containing the compound
The threshold is 3 µg/mL. Values of LC50 at 96 h beneath it are tagged met; values meeting or exceeding it are tagged not met.

{"molecule": "N#Cc1c[nH]cc1-c1cccc2c1OC(F)(F)O2 [Example 13.001, fludioxonil]", "classification": "met"}
{"molecule": "CC(C)(C)C(O)(CCc1ccc(Cl)cc1)Cn1cncn1 (stereo not shown) [Example 1.021, tebuconazole]", "classification": "not met"}
{"molecule": "N#Cc1cncn1CC(O)(Cc1ccccc1F)C1(Cl)CC1 (stereo not shown) [Example I-34]", "classification": "not met"}
{"molecule": "CC(C)c1ccc(Cl)cc1CN(C(=O)c1c(C(F)F)nn(C)c1F)C1CC1 [Example 2.038]", "classification": "met"}
{"molecule": "CC1CC(C)(C)c2cccc(NC(=O)c3cn(C)nc3C(F)F)c21 (stereo not shown) [Example 2.027, reference compound]", "classification": "met"}
{"molecule": "O=C(Cc1ccccc1)N/C(=N\\OCC1CC1)c1c(C(F)(F)F)ccc(F)c1F [Example 15.008, cyflufenamid]", "classification": "not met"}
{"molecule": "OC(Cc1ccccc1Cl)(Cn1nc[nH]c1=S)C1(Cl)CC1 (stereo not shown) [Example 1.018, prothioconazole]", "classification": "not met"}

FYI, the data here is from patent US20190223437A1.
